Reported melting point values follow for various compounds

>  <compound>
O=C(CN1CCNCC1)N1CCCCC1

>  <result>
83 to 85 °C

$$$$

# input Can you look up the measured melting point of "CC(=O)COc1ccc2cc(Br)ccc2c1" for me?
# output 106 to 108 °C

# input Can you look up the measured melting point of "Cc1c(C(=O)O)cc(Br)cc1S(N)(=O)=O" for me?
# output 213 to 215 °C

# input Can you look up the measured melting point of "Cc1ccc(NC(=O)CCl)c(C)c1" for me?
# output 153 to 155 °C

# input Can you look up the measured melting point of CC(O)Cc1nc2ccccc2s1 (stereo unspecified) for me?
# output 84 to 86 °C

# input Can you look up the measured melting point of "CC(=O)Oc1ccc(C(=O)Nc2ccccc2)cc1" for me?
# output 161 to 163 °C

# input Can you look up the measured melting point of "CCOc1ccc(C2(C(=O)O)CC2)cc1" for me?
# output 118 to 120 °C

# input Can you look up the measured melting point of "Nc1ccnn1Cc1c(Cl)cccc1Cl" for me?
# output 127 to 129 °C

# input Can you look up the measured melting point of "COc1ccc(CC#N)cc1[N+](=O)[O-]" for me?
# output 84 to 86 °C

# input Can you look up the measured melting point of "Fc1ccc(C(c2ccc(F)cc2)N2CCNCC2)cc1" for me?
# output 89 to 92 °C

# input Can you look up the measured melting point of "O=S(=O)(c1nnc[nH]1)N1CCNCC1" for me?
# output 240 to 242 °C
